Below, each entry is listed with its recorded kon.
Biological target: T1, human PXR-GST (Invitrogen) (human) (UniProt O75469)
T1 sequence: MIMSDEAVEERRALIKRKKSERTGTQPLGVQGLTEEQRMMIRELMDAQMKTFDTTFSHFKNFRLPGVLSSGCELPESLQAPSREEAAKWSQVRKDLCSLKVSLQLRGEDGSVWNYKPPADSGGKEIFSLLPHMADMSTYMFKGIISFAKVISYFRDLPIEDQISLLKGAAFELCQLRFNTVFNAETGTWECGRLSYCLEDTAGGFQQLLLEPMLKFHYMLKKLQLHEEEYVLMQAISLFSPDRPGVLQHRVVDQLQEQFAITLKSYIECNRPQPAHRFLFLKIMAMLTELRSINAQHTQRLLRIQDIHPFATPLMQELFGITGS
Assay: SPR (Biacore T100), Adnectin series over human PXR-GST captured by anti-GST antibody
Measurement label: kon (M⁻¹ s⁻¹)

| Binder | Recorded value |
| --- | --- |
| Adnectin-3 (designed binder) MASTSGVSDVPRDLEVVAATPTSLLISWDAPAVPVSKYVIYYWPGALISSMQAFKVPGSKSTATISGLKPGVLYSIVVDALTGDGQGSYVWDPITITYRTEGSGSHHHHHH | 16200 |
| Adnectin-4 (designed binder) MASTSGVSDVPRDLEVVAATPTSLLISWDAPAVTVHSYYITYQELQHHSVPQGFQVPGSKSTATISGLKPGVAYQIAVYAFTGPGLPPSDAPPIVIYYRTEGSGSHHHHHH | 21500 |
| Adnectin-6 (designed binder) MGVSDVPRDLEVVAATPTSLLISWSRPKGSIKYYRITYGETGGNSPVQEFTVPNSQYTATISGLKPGVDYTITVYAVYGYPYQEPHYYPISINYRTEIDKPSQHHHHHH | 680000 |
| Adnectin-8 (designed binder) MGVSDVPRDLEVVAATPTSLLISWSQPGRYVKYYRITYGETGGNSPVQEFTVPNDTYTATISGLKPGVDYTITVYAVYGKYGPYYGYDPISINYRTEIDKPSQHHHHHH | 41700 |
| Adnectin-1 (designed binder) MASTSGSTHYYKGTADLEVVAATPTSLLISWPPPYYVEGVTVFRITYGETGGNSPVQEFTVPYWTETATISGLKPGVDYTITVYAEMYPGSPWAGQVMDIQPISINYRTEGSGSHHHHHH | 104000 |
| Adnectin-5 (designed binder) MGVSDVPRDLEVVAATPTSLLISWKYPYETISYYRITYGETGGNSPVQEFTVPYYRSTATISGLKPGVDYTITVYAVEASAPYSDGGSPISINYRTEIDKPSQHHHHHH | 509000 |
| Adnectin-2 (designed binder) MASTSGVSDVPRDLEVVAATPTSLLISWDAPAVTVNNYRITYQPLLQGSSIQHFDVPGSKSTATISGLKPGVGYQITVYASTYTHSKAYYSLPISIYYRTEGSGSHHHHHH | 162000 |
| Adnectin-7 (designed binder) MGVSDVPRDLEVVTATPTSLLISWDGPKYYVKYYRITYGETGGNSPVQEFTVPRTDHTATISGLKPGVDYTITVYAVKGQYGPYYGSRPISINYRTEIDKPSQHHHHHH | 288000 |

Hey, just so you know, these numbers are from patent US11279751B2.
